Tested on: EKVX
measurement.notes: NCI tumour cell line growth inhibition, 48 h
The source made the active and inactive calls. Rule as the data show it: active = GI50 up to about 1.1 µM and inactive = higher.
measured.property: GI50

> print(dat)
                                   compound  test.system  measured.property               result
1  COC1=CC(=O)[C@]2(C)[C@H](C1=O)C(C)[C@H]2c1ccccc1 (stereo partly drawn)         EKVX               GI50  > 100 µM (inactive)
2  Cc1ccccc1NC(=O)C(=O)C(c1cnc2ccc([N+](=O)[O-])cc2n1)[N+](=O)[O-] (stereo not drawn)         EKVX               GI50  > 100 µM (inactive)
3  O=S(=O)(O)c1cccc2ccc(O)c(/N=N\c3ccc(S(=O)(=O)c4ccc(/N=N/c5c(O)ccc6cccc(S(=O)(=O)O)c56)cc4)cc3)c12         EKVX               GI50  > 100 µM (inactive)
4   CCN(CC)CCCNC(=O)c1ccccc1Nc1c(Cl)cccc1Cl         EKVX               GI50   11.1 µM (inactive)
5  COc1cc(/C=C/C(=O)OC[C@H](Br)[C@H](OC(C)=O)c2ccc3c(c2)OCO3)cc(OC)c1OC         EKVX               GI50  > 100 µM (inactive)
6  OCCO[P+]1(OCCO)n2c3ccc2C(c2ccccc2)=C2C=CC(=N2)C(c2ccccc2)=c2ccc(n21)=C(c1ccccc1)C1=NC(=C3c2ccccc2)C=C1         EKVX               GI50    0.104 µM (active)
7  COc1cc2c(c(OC)c1OC)-c1ccc(SC)c(=O)cc1[C@@H](NC(=O)c1ccc(OC(C)=O)cc1)CC2         EKVX               GI50   0.0139 µM (active)
8    CN(C)CCN(C)C(=O)c1cccc2cccc(C(=O)O)c12         EKVX               GI50  > 100 µM (inactive)
